Tested on: vancomycin-resistant Enterococcus faecium (VRE strain ATCC 700221)
assay.explanation: MIC broth microdilution, VRE 700221
Type: cell-based
test.context: Table 1A
Reported MIC E. faecium VRE 700221 by item:
Express the result in µM but write the number alone.

The cases that follow already have their MIC E. faecium VRE 700221 on record.
{"molecule": "CCCCCCCCCCCCCCCCn1cc[n+](Cc2ccc(F)cc2C(F)(F)F)c1C.[Br-]", "measured.parameter": "MIC E. faecium VRE 700221", "result": 1.56}
{"molecule": "CCCCCCCCCCCCCCCCn1c(C)[n+](Cc2cccc(F)c2)c2ccccc21.[Br-]", "measured.parameter": "MIC E. faecium VRE 700221", "result": 3.13}
{"molecule": "CCCCCCCCCCCCCCCCn1c(C)[n+](Cc2cccc(OC)c2)c2ccccc21.[Br-]", "measured.parameter": "MIC E. faecium VRE 700221", "result": 1.56}
{"molecule": "CCCCCCCCCCCCCCCCn1cc(-c2ccccc2)[n+](C)n1.[I-]", "measured.parameter": "MIC E. faecium VRE 700221", "result": 3.13}
{"molecule": "CCCCCCCCCCCCCCCCn1cc[n+](Cc2ccc(C(C)C)cc2)c1C.[Br-]", "measured.parameter": "MIC E. faecium VRE 700221", "result": 3.13}
{"molecule": "CCCCCCCCCCCCCCCCn1cc[n+](Cc2cccc(OC)c2)c1C.[Br-]", "measured.parameter": "MIC E. faecium VRE 700221", "result": 1.56}
{"molecule": "CCCCCCCCCCCCCCCCn1cc[n+](CCO)c1C.[Br-]", "measured.parameter": "MIC E. faecium VRE 700221", "result": 1.56}
{"molecule": "CCCCCCCCCCCCCCCCn1cc[n+](Cc2cc(Br)cc(Br)c2)c1C.[Br-]", "measured.parameter": "MIC E. faecium VRE 700221", "result": 6.25}
{"molecule": "CCCCCCCCCCCCCCCCn1cc[n+](Cc2cccc(F)c2)c1C.[Br-]", "measured.parameter": "MIC E. faecium VRE 700221", "result": 1.56}
{"molecule": "CCCCCCCCCCCCCCCCn1cc[n+](Cc2ccccc2)c1C [NH125, reference compound]", "measured.parameter": "MIC E. faecium VRE 700221", "result": 3.13}

Note: attention shifts to another entry.
Problem: For CCCCCCCCCCCCCCCCn1c(C)[n+](Cc2ccccc2)c2ccccc21.[Br-] , what is its reported MIC E. faecium VRE 700221?
Result: 1.56

###

Reported MIC MRSA-2 by item:
System: methicillin-resistant Staphylococcus aureus MRSA-2 (clinical isolate)
assay.explanation: MIC broth microdilution, MRSA-2
Assay type: cell-based
test.context: Table 3
Marks after values point to notes of the source that are not given here.

The cases that follow already have their MIC MRSA-2 on record.
{"smiles.entry": "CCCCCCCCCCCCCCCCn1cc[n+](Cc2cccc(OC)c2)c1C.[Br-]", "MIC MRSA-2": "2.35^a μM"}
{"smiles.entry": "CCCCCCCCCCCCCCCCn1cc[n+](CCCC)c1C.[Br-]", "MIC MRSA-2": "2.35^a μM"}

Problem: Write down the reported MIC MRSA-2 of CCCCCCCCCCCCCCCCn1cc[n+](-c2ccc(Oc3ccccc3)cc2)c1C.[Br-] , test system: methicillin-resistant Staphylococcus aureus MRSA-2 (clinical isolate).
Result: 4.69^a μM

Problem: Write down the reported MIC MRSA-2 of CCCCCCCCCCCCCCCCn1cc[n+](CCO)c1C.[Br-] , test system: methicillin-resistant Staphylococcus aureus MRSA-2 (clinical isolate).
Result: 1.17^a μM

Problem: Write down the reported MIC MRSA-2 of CCCCCCCCCCCCCCCCn1cc[n+](Cc2cccc(F)c2)c1C.[Br-] , test system: methicillin-resistant Staphylococcus aureus MRSA-2 (clinical isolate).
Result: 2.35^a μM

###

System: Acinetobacter baumannii (ATCC 1794)
assay.explanation: MIC broth microdilution, A. baumannii 1794
Assay type: cell-based
test.context: Table 4
measured.parameter: MIC A. bau. 1794

The cases that follow already have their MIC A. bau. 1794 on record.
{"molecule": "CCCCCCCCCCCCCCCCn1c(C)[n+](Cc2cccc(OC)c2)c2ccccc21.[Br-]", "result": ">100 µM"}
{"molecule": "CCCCCCCCCCCCCCCCn1c(C)[n+](Cc2ccccc2)c2ccccc21.[Br-]", "result": ">100 µM"}
{"molecule": "CCCCCCCCCCCCCCCCn1cc[n+](Cc2ccc(C(C)(C)C)cc2)c1C.[Br-]", "result": ">100 µM"}

Note: attention shifts to another entry.
Problem: For CCCCCCCCCCCCCCCCn1c(C)[n+](Cc2cccc(F)c2)c2ccccc21.[Br-] , what is its reported MIC A. bau. 1794?
Result: >100 µM

###

Test system: MRSA BAA-1707
assay.explanation: MIC broth microdilution, MRSA BAA-1707
Type: cell-based, Staphylococcus aureus
test.context: Table 3
Marks after values point to notes of the source that are not given here.
measured.parameter: MIC MRSA BAA-1707

The cases that follow already have their MIC MRSA BAA-1707 on record.
{"molecule": "CCCCCCCCCCCCCCCCn1cc[n+](-c2ccc(OC(F)(F)F)cc2)c1C.[Br-]", "measured.parameter": "MIC MRSA BAA-1707", "result": "4.69^a μM"}
{"molecule": "CCCCCCCCCCCCCCCCn1cc[n+](-c2ccc(Oc3ccccc3)cc2)c1C.[Br-]", "measured.parameter": "MIC MRSA BAA-1707", "result": "4.69^a μM"}
{"molecule": "CCCCCCCCCCCCCCCCn1cc[n+](Cc2ccccc2)c1C [NH125, reference compound]", "measured.parameter": "MIC MRSA BAA-1707", "result": "2.35^a μM"}

Note: attention shifts to another entry.
Problem: For CCCCCCCCCCCCCCCCn1cc[n+](CCCC)c1C.[Br-] , what is its reported MIC MRSA BAA-1707?
Result: 2.35^a μM

###

System: human red blood cells (hRBC)
assay.explanation: Hemolysis of red blood cells
Format: cell-based
test.context: Table 1A
Reported HC50 by item:
Express the result in µM but write the number alone.

The cases that follow already have their HC50 on record.
{"smiles.entry": "CCCCCCCCCCCCCCCCn1cc[n+](Cc2cccc(F)c2)c1C.[Br-]", "measured.parameter": "HC50", "result": 16.7}
{"smiles.entry": "CCCCCCCCCCCCCCCCn1cc[n+](C)c1C.[I-]", "measured.parameter": "HC50", "result": 13}
{"smiles.entry": "CCCCCCCCCCCCCCCCn1cc[n+](Cc2ccc(F)cc2C(F)(F)F)c1C.[Br-]", "measured.parameter": "HC50", "result": 10.7}

Problem: Write down the reported HC50 of CCCCCCCCCCCCCCCCn1cc(-c2ccccc2)[n+](C)n1.[I-] , test system: human red blood cells (hRBC).
Result: 12.6

Problem: Write down the reported HC50 of CCCCCCCCCCCCCCCCn1cc[n+](CCO)c1C.[Br-] , test system: human red blood cells (hRBC).
Result: 6.8

Problem: Write down the reported HC50 of CCCCCCCCCCCCCCCCn1c(C)[n+](Cc2ccccc2)c2ccccc21.[Br-] , test system: human red blood cells (hRBC).
Result: 10.4

###

Test system: MRSE ATCC 35984 biofilms
assay.explanation: Calgary Biofilm Device assay (MBC/MBEC), MRSE 35984
Assay type: cell-based, Staphylococcus epidermidis
test.context: Table 2A; CBD assay
Reported MRSE 35984 MBC by item:

The cases that follow already have their MRSE 35984 MBC on record.
{"compound": "CCCCCCCCCCCCCCCCn1cc[n+](CCO)c1C.[Br-]", "result": "3.9/3.9 μM"}
{"compound": "CCCCCCCCCCCCCCCCn1cc[n+](Cc2ccc(F)cc2C(F)(F)F)c1C.[Br-]", "result": "23.5^a/ μM"}
{"compound": "CCCCCCCCCCCCCCCCn1cc[n+](Cc2cccc(F)c2)c1C.[Br-]", "result": "11.7^a/ μM"}
{"compound": "CCCCCCCCCCCC[N+](C)(C)CC[N+](C)(C)CC[N+](C)(C)CCCCCCCCCCCC [QAC-10, reference compound]", "result": "31.3 µM⁻¹"}

Note: attention shifts to another entry.
Problem: Write down the reported MRSE 35984 MBC of CCCCCCCCCCCCCCCCn1cc[n+](C)c1C.[I-] , test system: MRSE ATCC 35984 biofilms.
Result: 3.0^a/ μM

###

Reported MIC MRSA-2 by item:
Tested on: methicillin-resistant Staphylococcus aureus MRSA-2 (clinical isolate)
assay.explanation: MIC broth microdilution, MRSA-2
Type: cell-based
test.context: Table 1B
Marks after values point to notes of the source that are not given here.

{"compound": "CCCCCCCCCCCCCCCCn1cc[n+](Cc2cccc(F)c2)c1C.[Br-]", "MIC MRSA-2": "2.35^a μM"}
{"compound": "CCCCCCCCCCCC[N+](C)(C)CC[N+](C)(C)CC[N+](C)(C)CCCCCCCCCCCC [QAC-10, reference compound]", "MIC MRSA-2": "2.35^a μM"}

Problem: For CCCCCCCCCCCCCCCCn1cc[n+](Cc2cccc(OC)c2)c1C.[Br-] , what is its reported MIC MRSA-2?
Result: 2.35^a μM

Problem: For CCCCCCCCCCCCCCCCn1cc[n+](-c2ccc(Oc3ccccc3)cc2)c1C.[Br-] , what is its reported MIC MRSA-2?
Result: 4.69^a μM

Problem: For CCCCCCCCCCCCCCCCn1cc[n+](CCCC)c1C.[Br-] , what is its reported MIC MRSA-2?
Result: 2.35^a μM

// data source = patent US11419335B2
